The reported numbers originate from PubChem BioAssay AID1159580.

ASSAY OVERVIEW: chemical genetic growth profiling, strain panel (AID 1159580);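 note: tested at 20 µM; growth read once vehicle control cultures reached saturation at 30 °C; 1 = growth at the plate median or of vehicle wells; lower values mean less growth of the strain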
MEASUREMENT CONTEXT: S. cerevisiae deletion strains, growth OD, locus YOR106W, strain vam3
Screen size: about 5,500 compounds; about 2,000 (36%) were called active. About 18% were inconclusive and are not listed. Cut-off read from the data, not from the text of the source: active = normalized growth mostly below about 0.91 (no sharp cut-off); inconclusive = no clear call, values can overlap the other calls; inactive = mostly above about 0.92. The list shows a part of the results.
Outcome codes: y = active, n = inactive

In [3]: df
Out[3]:
                                   compound  label_value
0  CCN(CC)C(C)CN1c2ccccc2Sc2ccccc21 (stereo unspecified)            y
1  NC(=O)c1ncn(C2O[C@H](CO)[C@@H](O)[C@H]2O)c1N (stereo partly specified)            n
2      Clc1ccc2c(c1)C(N1CCNCC1)=Nc1ccccc1O2            n
3                CNCCCN1c2ccccc2CCc2ccccc21            n
4  CNC(=O)Oc1ccc2c(c1)[C@]1(C)CCN(C)[C@@H]1N2C            n
5  CCCCCC1C(=O)CCC1CC(=O)OC (stereo unspecified)            n

----------
ASSAY OVERVIEW: chemical genetic growth profiling, strain panel (AID 1159580);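 note: tested at 20 µM; growth read once vehicle control cultures reached saturation at 30 °C; 1 = growth at the plate median or of vehicle wells; lower values mean less growth of the strain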
MEASUREMENT CONTEXT: S. cerevisiae deletion strains, growth OD, locus YGR078C, strain PAC10, active compounds read low
The campaign covered roughly 5,500 compounds. About 2,000 (36%) were called active. Inconclusive results (about 18%) are left out. The list shows a part of the results.

COMPOUND	normalized growth
COc1cc([C@H]2Oc3cc([C@H]4Oc5cc(O)cc(O)c5C(=O)[C@@H]4O)ccc3O[C@@H]2CO)ccc1O	0.989
COc1ccc(OCC(N)=O)cc1	1.01
C=C1C2=CC(=O)O[C@@H](c3ccoc3)[C@]2(C)CCC1[C@@]1(C)C=CC(=O)C(C)(C)[C@@H]1CC(=O)OC (some centres not stated)	1.01
O=C(O)Cc1ccccc1I	0.989
NS(=O)(=O)c1cc2c(cc1Cl)NC(C1CC3C=CC1C3)NS2(=O)=O (configuration not stated)	1.01
S=P(N1CC1)(N1CC1)N1CC1	1.01
NNCCc1ccccc1	1.01
N[C@@H](Cc1ccc(O)c(I)c1)C(=O)O	1.01
CN(C(=O)CN(CCO)CC(=O)N(C)C(C)(C)Cc1ccccc1)C(C)(C)Cc1ccccc1	1
CC(=O)O[C@H]1C[C@@H](OC(C)=O)C(C)(C)C2CC(=O)[C@]3(C)C(CC[C@@]4(C)[C@H](c5ccoc5)OC(=O)[C@H]5O[C@]543)[C@]21C (some centres not stated)	1.02
COc1c(Cl)ccc(Cl)c1C(=O)O	1.01
NS(=O)(=O)c1cccc2c1c([N+](=O)[O-])cc1nc(O)c(O)nc12	0.995

----------
ASSAY OVERVIEW: chemical genetic growth profiling, strain panel (AID 1159580);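 note: tested at 20 µM; growth read once vehicle control cultures reached saturation at 30 °C; 1 = growth at the plate median or of vehicle wells; lower values mean less growth of the strain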
MEASUREMENT CONTEXT: S. cerevisiae deletion strains, growth OD, locus YLR058C, strain SHM2, active compounds read low
The whole screen tested about 5,500 compounds, of which about 2,000 (36%) were called active. Roughly 18% stayed inconclusive and do not appear here. This is one part of the list.
MEASURED ATTRIBUTE: normalized growth

In [3]: df
Out[3]:
                                    compound  measured_attribute  numeric_readout
 0                  CCC(=O)Nc1ccc(Cl)c(Cl)c1   normalized growth                1
 1  C[C@]12C=CC(=O)C=C1CCC1C3C[C@@H](O)[C@](O)(C(=O)CO)[C@@]3(C)C[C@H](O)[C@@]12F (stereo partly drawn)   normalized growth             1.01
 2              C[C@H](N)[C@H](O)c1cccc(O)c1   normalized growth            0.983
 3  CO[C@]12C[C@@H](COC(=O)c3cncc(Br)c3)CN(C)[C@@H]1Cc1cn(C)c3cccc2c13   normalized growth                1
 4  C[C@@H]1CC2C3C[C@H](F)C4=CC(=O)C=C[C@]4(C)[C@@]3(F)[C@@H](O)C[C@]2(C)[C@@]1(O)C(=O)COC(=O)C(C)(C)C (stereo partly drawn)   normalized growth             1.01
 5  C=C1C2CC[C@@]3(C)[C@H](c4ccoc4)OC(=O)C[C@]13O[C@H]1CC(=O)C(C)(C)C(CC(=O)OC)[C@@]21C (stereo partly drawn)   normalized growth                1
 6  N[C@@H](Cc1cc(I)c(Oc2cc(I)c(O)c(I)c2)c(I)c1)C(=O)O   normalized growth             1.03
 7   CCCC(C(=O)OCCN(CC)CC)(c1ccccc1)c1ccccc1   normalized growth             1.01
 8  CCOC(=O)[C@H](CCc1ccccc1)N[C@@H](C)C(=O)N1Cc2ccccc2C[C@H]1C(=O)O   normalized growth             1.01
 9  CC1CC2C3CC(F)C4=CC(=O)C=CC4(C)C3(F)C(O)CC2(C)C1C(=O)COC(=O)C(C)(C)C (stereo not drawn)   normalized growth            0.981
10                 COC(=O)CCCOc1ccc(Cl)cc1Cl   normalized growth                1
11  C=C1C2=CC(=O)O[C@@H](c3ccoc3)[C@]2(C)CCC1[C@@]1(C)C=CC(=O)C(C)(C)[C@@H]1CC(=O)OC (stereo partly drawn)   normalized growth             1.01
12  CC[C@H](CCC(C)[C@H]1CCC2C3CCC4C[C@@H](O)CC[C@]4(C)C3CC[C@@]21C)C(C)C (stereo partly drawn)   normalized growth             1.01
